Every entry's value here was drawn from ChEMBL document CHEMBL3877272.

Listing: EC of selected molecules
# System: Paracentrotus lividus
# assay_info: Antimitotic activity in sea urchin embryo assessed as cleavage arrest exposed 8 to 15 mins after fertilization 45 to 55 mins before first mitotic cycle completion measured at 2.5 to 5.5 hrs post dose
# Format: functional
State the answer as a number, implicitly in µM.

Worked examples, 3 molecules total:
O=C1CC(c2cccc(Cl)c2)c2snc(-c3ccc(F)cc3)c2N1 (stereo unspecified) :: 4
COc1ccc(-c2nsc3c2NC(=O)CC3c2ccc3c(c2)OCCO3)cc1 (stereo unspecified) :: 0.05
COc1ccc(-c2nsc3c2NC(=O)CC3c2ccc(F)cc2)cc1 (stereo unspecified) :: 0.05

Moving on to another molecule below.
Endpoint output: EC of O=C1CC(c2ccc(F)cc2)c2snc(-c3ccc(F)cc3)c2N1 (stereo unspecified) . Value?
4
